read-out: Heat shock 70 kDa protein 1 (HSPA1A), gene 3303; assay: LTEA_HepaRG_HSPA1A: Life Technologies and Expression Analysis (LTEA) Assay for Heat shock 70 kDa protein 1 (HSPA1A) using HepaRG (AID 2283502); settings: mRNA level, 48 h; actives raise or lower the signal
Calls of active or inactive are those of the source. Rule for the calls: active = hit-call score of the fitted dose curve at least 0.9, where 1 is the maximum; inactive = score below 0.9.
Hello, when you answer, please use one of the following outcomes: 1 for active, -1 for inactive

Some entries whose results are on file:
molecule	answer-label
COc1ccc(/C=C/S(=O)(=O)NC(=O)c2ccc(C)cc2Cl)cc1	-1
CC(O)CN(CCN(CC(C)O)CC(C)O)CC(C)O (stereo not given)	-1
CC(C)CCCCCCCOC(=O)CCCCC(=O)OCCCCCCCC(C)C	-1
CC(C)CCO	-1

Which outcome was entered for the molecule CC(=O)OC[C@H]1O[C@@](COC(C)=O)(O[C@H]2O[C@H](COC(C)=O)[C@@H](OC(C)=O)[C@H](OC(C)=O)[C@H]2OC(C)=O)[C@@H](OC(C)=O)[C@@H]1OC(C)=O in this test?
-1

Which outcome was entered for the molecule CC[C@H]1OC(=O)[C@H](C)[C@@H](O[C@H]2C[C@@](C)(OC)[C@@H](O)[C@H](C)O2)[C@H](C)[C@@H](O[C@@H]2O[C@H](C)C[C@H](N(C)C)[C@H]2O)[C@](C)(O)C[C@@H](C)C(=O)[C@H](C)[C@@H](O)[C@]1(C)O in this test?
-1

Which outcome was entered for the molecule CCc1cc(SCc2sc(-c3ccc(C(F)(F)F)cc3)nc2CN2CCN(c3ccc(OC)cc3)CC2)ccc1OCC(=O)O in this test?
1

Which outcome was entered for the molecule Cn1c(=O)cc(Oc2ccc(F)cc2F)c2cnc(NCC(C)(C)O)nc21 in this test?
-1

Which outcome was entered for the molecule O=C(CCCCCCCCc1cccnc1)N1CCC(C=C(c2ccccc2)c2ccccc2)CC1 in this test?
1

Which outcome was entered for the molecule CC(C)=CCCC(C)CCO (stereo not given) in this test?
-1

* * *

test: APR_HepG2_CellLoss_72hr: Apredica 72-hour HepG2 Assay for Cell Loss (AID 2282915); settings: high-content imaging
Calls of active or inactive are those of the source. How the source made its calls: active means hit-call score of the fitted dose curve at least 0.9, where 1 is the maximum; inactive means score below 0.9.
Hello, when you answer, please use one of the following outcomes: active, inactive

Some entries whose results are on file:
compound	answer-label
Nc1ccc(Nc2ccccc2)cc1	active
Cc1ccc(C)c(O)c1	inactive
O=C(OC[C@H]1O[C@@H](OC(=O)c2cc(O)c(O)c(OC(=O)c3cc(O)c(O)c(O)c3)c2)[C@H](OC(=O)c2cc(O)c(O)c(OC(=O)c3cc(O)c(O)c(O)c3)c2)[C@@H](OC(=O)c2cc(O)c(O)c(OC(=O)c3cc(O)c(O)c(O)c3)c2)[C@@H]1OC(=O)c1cc(O)c(O)c(OC(=O)c2cc(O)c(O)c(O)c2)c1)c1cc(O)c(O)c(OC(=O)c2cc(O)c(O)c(O)c2)c1	active
COc1ccc(/C=C/S(=O)(=O)NC(=O)c2ccc(C)cc2Cl)cc1	active
Clc1nc(Cl)c(Cl)c(Cl)c1Cl	active

Which outcome was entered for the compound CC(C)=CCC/C(C)=C/CO in this test?
active

Which outcome was entered for the compound Fc1ccccc1[C@@H](F)COC1CCC(Nc2ncnc3[nH]ncc23)CC1 (some centres not stated) in this test?
active

Which outcome was entered for the compound CCOC(=O)COc1ccc2c(c1)CC(NCC(O)c1cccc(Cl)c1)CC2 (configuration not stated) in this test?
active

Which outcome was entered for the compound O=C(O)c1cccc(Oc2ccccc2)c1 in this test?
inactive

Which outcome was entered for the compound NC(=O)NO in this test?
inactive

Which outcome was entered for the compound O=c1n(CC2CO2)c(=O)n(CC2CO2)c(=O)n1CC1CO1 (configuration not stated) in this test?
active

Which outcome was entered for the compound C=CC(=C)CCC=C(C)C in this test?
inactive

Which outcome was entered for the compound CCOC(=O)c1ccc(C2CCC(NC[C@H](O)COc3ccc(O)c(NS(C)(=O)=O)c3)CC2)cc1 (some centres not stated) in this test?
active
